- System: HPIV-3
- assay.procedure: HPIV-3 replication in HEp-2 cells, plaque assay
- Assay type: cell-based
- setup.conditions: added to 10 μM lovastatin treated cells; 50 μM GGP, mevalonolactone or FP; cholesterol concentration not given
recorded.endpoint: rescue of lovastatin inhibition of HPIV-3 replication

{"columns": ["molecule", "result"],
 "data": [
  ["CC(C)=CCC/C(C)=C/CC/C(C)=C/CC/C(C)=C/COP(=O)(O)OP(=O)(O)O [geranylgeranylpyrophosphate]", "rescues the inhibition"],
  ["C[C@@]1(O)CCOC(=O)C1", "rescues the inhibition"]
]}
